Here, each record is paired with measured EC50 data.
- system_under_test: rat mGlu5 (Rattus norvegicus (Rat))
- Sequence (P31424 21-1203): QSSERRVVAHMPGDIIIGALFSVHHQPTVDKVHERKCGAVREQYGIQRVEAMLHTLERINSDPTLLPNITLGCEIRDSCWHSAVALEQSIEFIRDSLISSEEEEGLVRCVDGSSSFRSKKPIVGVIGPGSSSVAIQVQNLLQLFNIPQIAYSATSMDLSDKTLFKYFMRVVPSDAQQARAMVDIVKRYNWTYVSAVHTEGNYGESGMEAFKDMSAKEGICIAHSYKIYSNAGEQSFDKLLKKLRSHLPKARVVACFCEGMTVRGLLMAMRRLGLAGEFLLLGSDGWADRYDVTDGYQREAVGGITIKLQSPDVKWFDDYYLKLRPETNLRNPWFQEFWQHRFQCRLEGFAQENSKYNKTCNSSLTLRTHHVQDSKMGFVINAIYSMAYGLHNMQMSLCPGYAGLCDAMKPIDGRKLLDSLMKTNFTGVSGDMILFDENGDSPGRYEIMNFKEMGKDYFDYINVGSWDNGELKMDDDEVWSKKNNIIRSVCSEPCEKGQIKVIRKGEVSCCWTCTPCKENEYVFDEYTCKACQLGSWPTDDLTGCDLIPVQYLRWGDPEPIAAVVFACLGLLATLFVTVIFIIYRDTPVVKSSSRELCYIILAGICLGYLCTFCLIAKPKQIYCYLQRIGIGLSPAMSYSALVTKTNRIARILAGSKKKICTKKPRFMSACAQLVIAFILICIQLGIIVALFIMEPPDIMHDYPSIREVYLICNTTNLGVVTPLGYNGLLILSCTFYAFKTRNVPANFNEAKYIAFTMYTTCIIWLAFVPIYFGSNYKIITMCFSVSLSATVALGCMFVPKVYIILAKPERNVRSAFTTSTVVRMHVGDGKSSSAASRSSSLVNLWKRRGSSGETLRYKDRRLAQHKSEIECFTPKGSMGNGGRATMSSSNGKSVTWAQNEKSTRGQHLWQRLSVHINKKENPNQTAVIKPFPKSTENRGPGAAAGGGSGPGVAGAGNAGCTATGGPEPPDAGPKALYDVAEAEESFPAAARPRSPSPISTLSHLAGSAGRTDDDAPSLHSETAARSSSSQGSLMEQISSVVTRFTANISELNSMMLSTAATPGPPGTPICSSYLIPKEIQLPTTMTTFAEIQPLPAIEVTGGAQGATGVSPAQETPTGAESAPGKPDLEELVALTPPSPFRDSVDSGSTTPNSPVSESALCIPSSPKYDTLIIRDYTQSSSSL
- test_protocol: mGlu5 Ca2+ flux assay
- Format: cell-based
- study_conditions: read-out: rat mGlu5 EC50 or IC50

>  <compound>
COc1ccccc1NCc1cc2n(n1)CCN(c1ccc(F)cc1)C2=O

>  <EC50>
> 30 µM

$$$$
>  <compound>
C[C@@H]1CN(c2ccc(F)cc2)C(=O)c2cc(CNc3cccc(F)c3F)nn21

>  <EC50>
> 10 µM

$$$$
>  <compound>
COc1ccc(N(C)Cc2cc3n(n2)CCN(c2cc(F)ccc2F)C3=O)cc1

>  <EC50>
> 30 µM

$$$$
>  <compound>
CC(Nc1ccccc1)c1cc2n(n1)CCN(c1ccc(F)cc1)C2=O (stereo not drawn)

>  <EC50>
> 30 µM

$$$$
>  <compound>
O=C1c2cc(CNc3ccccc3F)nn2CCN1c1ccc(F)cc1

>  <EC50>
2.47 µM

$$$$
>  <compound>
O=C1c2cc(CNc3ccc(OC(F)F)cc3)nn2CCN1c1ccc(F)cc1

>  <EC50>
> 30 µM

$$$$
>  <compound>
O=C1c2cc(CNc3ccc(OC(F)F)cc3F)nn2CCN1c1cccc(F)c1

>  <EC50>
> 10 µM

$$$$
>  <compound>
N#CCc1ccc(NCc2cc3n(n2)CCN(c2ccc(F)cc2)C3=O)cc1

>  <EC50>
> 30 µM

$$$$
>  <compound>
O=C1c2cc(CNc3c(F)cc(F)cc3F)nn2CCN1c1ccc(F)cc1

>  <EC50>
1.11 µM

$$$$
